This collection of values is drawn from ChEMBL document CHEMBL5678801.

# RUN DESCRIPTION: Cmax in chronic SCW-induced arthritis Lewis rat model plasma at ED50 concentration
# Assay type: ADME, cell-free
PROPERTY NAME: Cmax (µM)
One number for each entry, in µM.

Query: Returns the measured Cmax for the input compound. Input: `Cc1ccc(-c2ccc3c(ccc4sc5c(c43)NC[C@@H](C)NC5=O)n2)cn1`
Response: 11

---

# RUN DESCRIPTION: Inhibition of recombinant RSK1/2/3/4 (unknown origin) using KKKALSRQLSVAA as substrate incubated for 1 hr followed by substrate addition in presence of ATP
# Set-up: species or system Homo sapiens
pIC50: −log10 of the molar value.
PROPERTY NAME: pIC50

Query: Returns the measured pIC50 for the input compound. Input: `Cc1ccc(-c2ccc3c(ccc4sc5c(c43)NC[C@@H](C)NC5=O)n2)cn1`
Response: < 6.00

---

# TARGET DESC: MAP kinase-activated protein kinase 2 (Homo sapiens, UniProt P49137)
# Sequence (P49137 whole entry, the tested form may be a part): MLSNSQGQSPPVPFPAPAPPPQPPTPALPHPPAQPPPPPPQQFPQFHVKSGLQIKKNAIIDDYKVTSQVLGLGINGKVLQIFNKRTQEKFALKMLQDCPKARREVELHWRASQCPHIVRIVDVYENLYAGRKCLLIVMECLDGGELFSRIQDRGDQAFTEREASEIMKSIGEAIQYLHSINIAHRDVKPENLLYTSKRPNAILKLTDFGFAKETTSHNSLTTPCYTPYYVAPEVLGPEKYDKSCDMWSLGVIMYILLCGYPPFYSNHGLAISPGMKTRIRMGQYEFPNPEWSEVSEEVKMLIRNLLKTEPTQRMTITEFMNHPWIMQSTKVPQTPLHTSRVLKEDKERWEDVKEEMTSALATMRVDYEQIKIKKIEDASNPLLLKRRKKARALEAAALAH
# RUN DESCRIPTION: Binding affinity to recombinant N-terminal truncated MK2 (45 to 371 residues) (unknown origin) expressed in Escherichia coli assessed as dissociation constant measured after 15 mins by surface plasmon resonance spectroscopy analysis
PROPERTY NAME: Kd (nM)
Numbers only, in nM.

Query: Query Kd on MAP kinase-activated protein kinase 2 (Homo sapiens, UniProt P49137) for `Cc1ccc(-c2ccc3c(ccc4sc5c(c43)NC[C@@H](C)NC5=O)n2)cn1`
Response: 5.9

---

# RUN DESCRIPTION: Oral bioavailability in Sprague-Dawley rat at 3 mg/kg measured upto 24 hrs by […] analysis
# Format: ADME, organism-based
# REPORTED CONDITIONS: in vivo
PROPERTY NAME: bioavailability
Please state the number and follow it with the unit.

Query: Returns the measured bioavailability for the input molecule. Input: `Cc1ccc(-c2ccc3c(ccc4sc5c(c43)NC[C@@H](C)NC5=O)n2)cn1`
Response: 46%

---

# TARGET DESC: MAP kinase-activated protein kinase 3 (Homo sapiens, UniProt Q16644)
# Sequence (Q16644 whole entry): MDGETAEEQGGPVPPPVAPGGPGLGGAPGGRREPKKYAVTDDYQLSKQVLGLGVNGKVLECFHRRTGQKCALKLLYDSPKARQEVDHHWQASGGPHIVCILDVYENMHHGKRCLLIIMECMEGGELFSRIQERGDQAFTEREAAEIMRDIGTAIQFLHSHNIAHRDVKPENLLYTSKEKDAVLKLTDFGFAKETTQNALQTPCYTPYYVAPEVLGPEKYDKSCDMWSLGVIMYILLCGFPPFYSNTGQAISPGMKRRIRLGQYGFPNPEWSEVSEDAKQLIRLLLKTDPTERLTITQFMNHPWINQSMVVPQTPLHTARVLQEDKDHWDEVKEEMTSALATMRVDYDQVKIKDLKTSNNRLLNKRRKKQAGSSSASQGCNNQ
# RUN DESCRIPTION: Inhibition of recombinant MK3 (unknown origin) expressed in Escherichia coli using KKKALSRQLSVAA as substrate incubated for 1 hr followed by substrate addition in presence of ATP
PROPERTY NAME: IC50 (nM)
Numbers only, in nM.

Query: Returns the measured IC50 for the input compound. Input: `Cc1ccc(-c2ccc3c(ccc4sc5c(c43)NC[C@@H](C)NC5=O)n2)cn1`
Response: 53

---

# TARGET DESC: UniProt:P30530
# Sequence (P30530 whole entry): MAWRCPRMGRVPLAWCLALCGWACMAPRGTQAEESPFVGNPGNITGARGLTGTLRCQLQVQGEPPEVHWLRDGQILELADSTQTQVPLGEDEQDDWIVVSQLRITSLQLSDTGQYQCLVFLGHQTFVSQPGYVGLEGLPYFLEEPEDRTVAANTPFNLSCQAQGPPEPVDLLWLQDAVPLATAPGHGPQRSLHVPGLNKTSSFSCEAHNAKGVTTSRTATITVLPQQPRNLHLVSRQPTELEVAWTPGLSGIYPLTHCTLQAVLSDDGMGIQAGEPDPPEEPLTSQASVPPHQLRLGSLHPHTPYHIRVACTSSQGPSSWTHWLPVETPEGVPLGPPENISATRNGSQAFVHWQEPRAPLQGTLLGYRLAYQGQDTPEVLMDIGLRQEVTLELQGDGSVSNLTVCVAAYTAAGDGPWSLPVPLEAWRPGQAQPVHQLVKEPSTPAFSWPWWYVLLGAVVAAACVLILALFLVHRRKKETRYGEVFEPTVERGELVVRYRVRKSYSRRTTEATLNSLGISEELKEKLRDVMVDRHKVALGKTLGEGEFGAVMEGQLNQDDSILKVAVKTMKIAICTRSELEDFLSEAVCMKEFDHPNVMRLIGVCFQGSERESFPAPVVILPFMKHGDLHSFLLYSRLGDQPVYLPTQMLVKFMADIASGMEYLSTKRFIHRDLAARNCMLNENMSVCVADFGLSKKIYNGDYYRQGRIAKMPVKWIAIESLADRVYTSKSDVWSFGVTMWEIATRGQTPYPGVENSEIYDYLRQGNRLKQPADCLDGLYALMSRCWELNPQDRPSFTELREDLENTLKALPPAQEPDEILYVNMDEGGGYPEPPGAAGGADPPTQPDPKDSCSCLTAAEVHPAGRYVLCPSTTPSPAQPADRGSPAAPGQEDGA
PROPERTY NAME: IC50 (nM)
Give bare numbers, in nM.

Query: Returns the measured IC50 for the input compound. Input: `Cc1ccc(-c2ccc3c(ccc4sc5c(c43)NC[C@@H](C)NC5=O)n2)cn1`
Response: 428

---

# RUN DESCRIPTION: Half life in Sprague-Dawley rat measured upto 24 hrs by […] analysis
# Assay type: ADME
# REPORTED CONDITIONS: in vivo
PROPERTY NAME: half-life (h)
Give bare numbers, in h.

Query: Returns the measured half-life for the input molecule. Input: `Cc1ccc(-c2ccc3c(ccc4sc5c(c43)NC[C@@H](C)NC5=O)n2)cn1`
Response: 9.1

---

# TARGET DESC: Mitogen-activated protein kinase kinase kinase 5 (Homo sapiens, UniProt Q99683)
# Sequence (Q99683 whole entry): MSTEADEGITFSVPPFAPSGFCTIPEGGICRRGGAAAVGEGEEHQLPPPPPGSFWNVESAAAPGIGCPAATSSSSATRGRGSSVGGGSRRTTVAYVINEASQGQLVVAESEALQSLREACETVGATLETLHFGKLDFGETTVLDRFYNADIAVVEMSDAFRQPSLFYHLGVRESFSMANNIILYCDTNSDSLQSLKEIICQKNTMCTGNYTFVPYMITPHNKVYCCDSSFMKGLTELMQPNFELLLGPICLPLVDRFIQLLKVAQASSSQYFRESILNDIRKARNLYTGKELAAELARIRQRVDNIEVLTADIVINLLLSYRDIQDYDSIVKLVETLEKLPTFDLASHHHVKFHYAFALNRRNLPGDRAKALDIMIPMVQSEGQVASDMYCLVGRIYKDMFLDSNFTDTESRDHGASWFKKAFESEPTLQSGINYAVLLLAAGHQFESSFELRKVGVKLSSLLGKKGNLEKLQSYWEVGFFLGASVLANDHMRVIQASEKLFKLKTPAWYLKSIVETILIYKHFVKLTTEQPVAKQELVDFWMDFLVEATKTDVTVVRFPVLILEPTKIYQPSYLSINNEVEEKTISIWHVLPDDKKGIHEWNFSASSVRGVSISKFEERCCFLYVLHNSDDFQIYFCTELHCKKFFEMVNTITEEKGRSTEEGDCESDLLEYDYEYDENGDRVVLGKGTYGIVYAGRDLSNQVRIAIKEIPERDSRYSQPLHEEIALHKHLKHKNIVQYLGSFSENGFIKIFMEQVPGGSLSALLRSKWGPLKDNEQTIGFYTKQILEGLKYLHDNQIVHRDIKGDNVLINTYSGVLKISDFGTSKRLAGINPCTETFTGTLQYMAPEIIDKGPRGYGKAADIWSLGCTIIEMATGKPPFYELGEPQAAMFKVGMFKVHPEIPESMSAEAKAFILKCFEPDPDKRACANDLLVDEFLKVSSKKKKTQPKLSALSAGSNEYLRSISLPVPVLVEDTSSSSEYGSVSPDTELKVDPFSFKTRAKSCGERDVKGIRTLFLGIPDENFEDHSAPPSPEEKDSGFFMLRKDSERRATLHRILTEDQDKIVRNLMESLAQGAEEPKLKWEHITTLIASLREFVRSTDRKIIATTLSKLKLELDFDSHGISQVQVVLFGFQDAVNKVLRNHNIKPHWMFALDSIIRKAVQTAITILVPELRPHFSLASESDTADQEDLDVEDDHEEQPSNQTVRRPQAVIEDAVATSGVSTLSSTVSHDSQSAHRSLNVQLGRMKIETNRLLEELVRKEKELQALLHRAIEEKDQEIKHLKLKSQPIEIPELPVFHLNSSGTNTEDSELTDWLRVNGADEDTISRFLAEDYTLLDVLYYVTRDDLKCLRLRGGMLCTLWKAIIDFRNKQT
# RUN DESCRIPTION: Inhibition of ASK1 (unknown origin)
PROPERTY NAME: IC50 (nM)
Answers are plain numbers, in nM.

Query: Returns the measured IC50 for the input compound. Input: `Cc1ccc(-c2ccc3c(ccc4sc5c(c43)NC[C@@H](C)NC5=O)n2)cn1`
Response: 60
